experiment: qHTS assay to test for compound auto fluorescence at 460 nm (blue) in HEK293 cells (AID 720678); details: blue autofluorescence 405/460 nm; series mostly up to 46 µM
Active and inactive are the calls of the source. Calls come from the whole dose curve; as a rule, active = well fitted curve in the direction sought with a large enough effect in the repeat runs; inconclusive = weak or mixed curves; inactive = flat fitted curve, though single readings scatter.
metric_name: outcome

C[N+]1([O-])[C@@H]2CC(OC(=O)[C@H](CO)c3ccccc3)C[C@H]1[C@@H]1O[C@@H]12 (stereo not given in full)
inactive
CCN1C[C@]2(COC)[C@H](O)C[C@H](OC)[C@@]34[C@@H]5C[C@@]6(O)[C@H](OC(=O)c7ccccc7)[C@@H]5[C@@](OC(C)=O)([C@@H]([C@H](OC)[C@H]23)[C@@H]14)[C@@H](O)[C@@H]6OC
inactive
CN1[C@H]2CC[C@@H]1[C@@H](C(=O)O)[C@@H](OC(=O)c1ccccc1)C2
inactive
CN[C@@H]1C[C@@H](c2ccc(Cl)c(Cl)c2)c2ccccc21
inactive
CNC(C)CC1CCCCC1 (stereo not given)
inactive
CN[C@@]1(c2ccccc2Cl)CCCCC1=O
inactive
Oc1c(Cl)cc(Cl)cc1Cl
inactive
C[C@H]1[C@H]2Cc3ccc(O)cc3[C@]1(C)CCN2CCc1ccccc1
inactive
COc1ccc2c(c1)C13CCCC[C@@H]1C(C2)N(C)CC3 (stereo not given in full)
inactive

// query Specify outcome for [S]=[Sb](=[S])[S][Sb](=[S])=[S] and stop.
// result inactive
